Tested on: Streptococcus pyogenes
MEASUREMENT DESCRIPTION: In vitro antibacterial activity of 930 strain of Gram positive bacteria Streptococcus pyogenes
Assay type: functional
ASSAY METRIC: log10(MIC) (log10 of the value in µg/mL)
The common logarithm of MIC in µg/mL is what is listed.

Sample records with log10(MIC):
CC[C@H]1OC(=O)/C(C)=C/[C@H](C)[C@@H](O[C@@H]2O[C@H](C)C[C@H](N(C)C)[C@H]2O)[C@@](C)(OC)C[C@@H](C)C(=O)[C@H](C)[C@H]2N(NCCCc3cccc(Cl)c3)C(=O)O[C@]12C :: 1.20
CC[C@H]1OC(=O)/C(C)=C/[C@H](C)[C@@H](O[C@@H]2O[C@H](C)C[C@H](N(C)C)[C@H]2O)[C@@](C)(OC)C[C@@H](C)C(=O)[C@H](C)[C@H]2N(NCc3ccc(N(C)C)c4ccccc34)C(=O)O[C@]12C :: 1.20

API: the following record is the query input.
Bench note: what log10(MIC) did `CC[C@H]1OC(=O)/C(C)=C/[C@H](C)[C@@H](O[C@@H]2O[C@H](C)C[C@H](N(C)C)[C@H]2O)[C@@](C)(OC)C[C@@H](C)C(=O)[C@H](C)[C@H]2N(NC/C=C/c3ccc([N+](=O)[O-])cc3)C(=O)O[C@]12C` show?
1.51
